# Study Target: human Nav1.7 channels stably expressed in HEK 293 cells (Homo sapiens, UniProt Q15858)
# Construct: expressed in transfected cells; host or cells: HEK 293
# Sequence (Q15858 whole entry): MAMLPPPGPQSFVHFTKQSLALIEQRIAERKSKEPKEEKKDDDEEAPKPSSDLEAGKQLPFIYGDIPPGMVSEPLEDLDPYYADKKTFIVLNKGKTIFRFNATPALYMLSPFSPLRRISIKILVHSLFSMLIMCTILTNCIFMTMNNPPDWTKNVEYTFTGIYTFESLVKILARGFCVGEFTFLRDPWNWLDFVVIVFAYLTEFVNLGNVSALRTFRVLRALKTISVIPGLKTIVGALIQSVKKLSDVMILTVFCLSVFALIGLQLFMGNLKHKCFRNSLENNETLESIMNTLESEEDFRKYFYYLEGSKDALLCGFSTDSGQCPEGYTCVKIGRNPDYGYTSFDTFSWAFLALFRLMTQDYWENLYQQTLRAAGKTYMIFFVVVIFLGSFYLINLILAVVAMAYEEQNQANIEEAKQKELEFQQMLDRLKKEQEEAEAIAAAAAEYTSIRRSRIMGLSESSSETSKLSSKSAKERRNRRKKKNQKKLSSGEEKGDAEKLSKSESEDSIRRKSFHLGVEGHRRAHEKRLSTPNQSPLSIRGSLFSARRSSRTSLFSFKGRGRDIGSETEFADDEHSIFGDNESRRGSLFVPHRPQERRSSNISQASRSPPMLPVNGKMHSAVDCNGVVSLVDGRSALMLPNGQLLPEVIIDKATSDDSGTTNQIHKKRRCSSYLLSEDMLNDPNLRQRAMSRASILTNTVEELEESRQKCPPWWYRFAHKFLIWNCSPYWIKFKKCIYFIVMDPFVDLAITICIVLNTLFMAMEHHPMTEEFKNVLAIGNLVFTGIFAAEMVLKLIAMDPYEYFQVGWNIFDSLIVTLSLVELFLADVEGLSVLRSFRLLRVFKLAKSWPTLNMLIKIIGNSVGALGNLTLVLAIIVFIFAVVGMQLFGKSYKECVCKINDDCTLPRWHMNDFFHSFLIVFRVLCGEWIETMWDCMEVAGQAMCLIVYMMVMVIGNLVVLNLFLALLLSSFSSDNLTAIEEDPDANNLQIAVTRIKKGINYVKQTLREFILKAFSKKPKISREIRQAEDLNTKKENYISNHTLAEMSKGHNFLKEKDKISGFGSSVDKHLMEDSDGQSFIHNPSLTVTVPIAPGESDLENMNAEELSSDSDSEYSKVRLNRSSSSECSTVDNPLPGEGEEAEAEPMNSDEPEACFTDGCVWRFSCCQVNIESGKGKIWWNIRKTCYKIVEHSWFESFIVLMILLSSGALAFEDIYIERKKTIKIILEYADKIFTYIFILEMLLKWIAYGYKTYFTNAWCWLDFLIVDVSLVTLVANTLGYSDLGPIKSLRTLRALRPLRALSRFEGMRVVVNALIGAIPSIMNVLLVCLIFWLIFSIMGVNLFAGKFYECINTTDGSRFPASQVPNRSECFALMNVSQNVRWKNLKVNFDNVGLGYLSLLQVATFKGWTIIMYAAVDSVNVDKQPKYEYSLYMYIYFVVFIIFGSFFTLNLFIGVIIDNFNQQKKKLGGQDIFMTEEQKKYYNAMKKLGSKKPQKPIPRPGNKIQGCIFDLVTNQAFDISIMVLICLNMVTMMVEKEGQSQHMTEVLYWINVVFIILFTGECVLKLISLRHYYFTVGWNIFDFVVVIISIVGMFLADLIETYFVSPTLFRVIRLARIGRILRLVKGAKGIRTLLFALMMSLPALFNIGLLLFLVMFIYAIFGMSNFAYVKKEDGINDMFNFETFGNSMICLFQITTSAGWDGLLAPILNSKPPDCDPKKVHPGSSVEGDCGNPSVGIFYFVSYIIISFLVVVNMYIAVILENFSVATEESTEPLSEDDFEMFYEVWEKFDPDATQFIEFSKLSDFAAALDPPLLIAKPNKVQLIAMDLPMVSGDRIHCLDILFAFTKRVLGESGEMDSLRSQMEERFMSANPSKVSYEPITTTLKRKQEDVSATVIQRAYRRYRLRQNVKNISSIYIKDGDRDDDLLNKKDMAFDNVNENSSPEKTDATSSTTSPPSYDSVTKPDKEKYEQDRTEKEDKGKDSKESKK
# Assay Summary: IonWorks Quattro automated patch-clamp, inactivated state block
# Format: cell-based
# Run Parameters: IonWorks technique; read-out: Nav 1.7 potency
Quantity Kind: IC50 (µM)
Quick reminder: number only, in µM, skip the unit.

{"Molecule": "O=S(=O)(Nc1ncns1)c1ccc2c(cnn2Cc2ccc(Cl)cc2C2=CCNCCC2)c1", "IC50 [µM]": 0.559}

q: Under human Nav1.7 channels stably expressed in HEK 293 cells (Homo sapiens, UniProt Q15858), report IC50 for NC1CCc2cccc(Cn3ncc4cc(S(=O)(=O)Nc5ncns5)c(F)cc43)c2C1 (single isomer, unassigned) [Ex-13]
a: 0.006

q: Under human Nav1.7 channels stably expressed in HEK 293 cells (Homo sapiens, UniProt Q15858), report IC50 for `CN(C)CCNC(=O)c1cccc(-c2cc(Cl)ccc2Cn2ncc3cc(S(=O)(=O)Nc4ncns4)ccc32)c1`
a: 0.96

q: Under human Nav1.7 channels stably expressed in HEK 293 cells (Homo sapiens, UniProt Q15858), report IC50 for `C[C@@H](c1ccccc1)n1ncc2cc(S(=O)(=O)Nc3ncns3)c(F)cc21`
a: 1.48

q: Under human Nav1.7 channels stably expressed in HEK 293 cells (Homo sapiens, UniProt Q15858), report IC50 for `C[C@H](c1cccc2c1CNCC2)n1ncc2cc(S(=O)(=O)Nc3ncns3)c(F)cc21`
a: 0.021

q: Under human Nav1.7 channels stably expressed in HEK 293 cells (Homo sapiens, UniProt Q15858), report IC50 for `O=S(=O)(Nc1ncns1)c1ccc2c(cnn2Cc2ccccc2-c2cccc3c2CCNC3)c1`
a: 1.46

q: Under human Nav1.7 channels stably expressed in HEK 293 cells (Homo sapiens, UniProt Q15858), report IC50 for O=S(=O)(Nc1ncns1)c1ccc2c(cnn2Cc2ccc(Cl)cc2C2=CC3CCC(C2)N3)c1 (centres unmarked)
a: 1.26

q: Under human Nav1.7 channels stably expressed in HEK 293 cells (Homo sapiens, UniProt Q15858), report IC50 for `CN(C)CCNC(=O)c1cccc(-c2ccccc2Cn2ncc3cc(S(=O)(=O)Nc4ncns4)c(F)cc32)c1`
a: 0.856

q: Under human Nav1.7 channels stably expressed in HEK 293 cells (Homo sapiens, UniProt Q15858), report IC50 for `O=S(=O)(Nc1ncns1)c1cc2cnn(Cc3ccccc3-c3cccc4c3CCNC4)c2cc1F`
a: 1.08

q: Under human Nav1.7 channels stably expressed in HEK 293 cells (Homo sapiens, UniProt Q15858), report IC50 for `O=S(=O)(Nc1cccc(F)n1)c1cc2cnn(Cc3cccc4c3CNCC4)c2cc1F`
a: 0.519

q: Under human Nav1.7 channels stably expressed in HEK 293 cells (Homo sapiens, UniProt Q15858), report IC50 for `C[C@H](c1ccccc1)n1ncc2cc(S(=O)(=O)Nc3ncns3)c(F)cc21`
a: 1.04

* * *

# Study Target: human Nav1.5 channels stably expressed in HEK 293 cells (Homo sapiens)
# Construct: expressed in transfected cells; host or cells: HEK 293
# Sequence (Q14524 whole entry): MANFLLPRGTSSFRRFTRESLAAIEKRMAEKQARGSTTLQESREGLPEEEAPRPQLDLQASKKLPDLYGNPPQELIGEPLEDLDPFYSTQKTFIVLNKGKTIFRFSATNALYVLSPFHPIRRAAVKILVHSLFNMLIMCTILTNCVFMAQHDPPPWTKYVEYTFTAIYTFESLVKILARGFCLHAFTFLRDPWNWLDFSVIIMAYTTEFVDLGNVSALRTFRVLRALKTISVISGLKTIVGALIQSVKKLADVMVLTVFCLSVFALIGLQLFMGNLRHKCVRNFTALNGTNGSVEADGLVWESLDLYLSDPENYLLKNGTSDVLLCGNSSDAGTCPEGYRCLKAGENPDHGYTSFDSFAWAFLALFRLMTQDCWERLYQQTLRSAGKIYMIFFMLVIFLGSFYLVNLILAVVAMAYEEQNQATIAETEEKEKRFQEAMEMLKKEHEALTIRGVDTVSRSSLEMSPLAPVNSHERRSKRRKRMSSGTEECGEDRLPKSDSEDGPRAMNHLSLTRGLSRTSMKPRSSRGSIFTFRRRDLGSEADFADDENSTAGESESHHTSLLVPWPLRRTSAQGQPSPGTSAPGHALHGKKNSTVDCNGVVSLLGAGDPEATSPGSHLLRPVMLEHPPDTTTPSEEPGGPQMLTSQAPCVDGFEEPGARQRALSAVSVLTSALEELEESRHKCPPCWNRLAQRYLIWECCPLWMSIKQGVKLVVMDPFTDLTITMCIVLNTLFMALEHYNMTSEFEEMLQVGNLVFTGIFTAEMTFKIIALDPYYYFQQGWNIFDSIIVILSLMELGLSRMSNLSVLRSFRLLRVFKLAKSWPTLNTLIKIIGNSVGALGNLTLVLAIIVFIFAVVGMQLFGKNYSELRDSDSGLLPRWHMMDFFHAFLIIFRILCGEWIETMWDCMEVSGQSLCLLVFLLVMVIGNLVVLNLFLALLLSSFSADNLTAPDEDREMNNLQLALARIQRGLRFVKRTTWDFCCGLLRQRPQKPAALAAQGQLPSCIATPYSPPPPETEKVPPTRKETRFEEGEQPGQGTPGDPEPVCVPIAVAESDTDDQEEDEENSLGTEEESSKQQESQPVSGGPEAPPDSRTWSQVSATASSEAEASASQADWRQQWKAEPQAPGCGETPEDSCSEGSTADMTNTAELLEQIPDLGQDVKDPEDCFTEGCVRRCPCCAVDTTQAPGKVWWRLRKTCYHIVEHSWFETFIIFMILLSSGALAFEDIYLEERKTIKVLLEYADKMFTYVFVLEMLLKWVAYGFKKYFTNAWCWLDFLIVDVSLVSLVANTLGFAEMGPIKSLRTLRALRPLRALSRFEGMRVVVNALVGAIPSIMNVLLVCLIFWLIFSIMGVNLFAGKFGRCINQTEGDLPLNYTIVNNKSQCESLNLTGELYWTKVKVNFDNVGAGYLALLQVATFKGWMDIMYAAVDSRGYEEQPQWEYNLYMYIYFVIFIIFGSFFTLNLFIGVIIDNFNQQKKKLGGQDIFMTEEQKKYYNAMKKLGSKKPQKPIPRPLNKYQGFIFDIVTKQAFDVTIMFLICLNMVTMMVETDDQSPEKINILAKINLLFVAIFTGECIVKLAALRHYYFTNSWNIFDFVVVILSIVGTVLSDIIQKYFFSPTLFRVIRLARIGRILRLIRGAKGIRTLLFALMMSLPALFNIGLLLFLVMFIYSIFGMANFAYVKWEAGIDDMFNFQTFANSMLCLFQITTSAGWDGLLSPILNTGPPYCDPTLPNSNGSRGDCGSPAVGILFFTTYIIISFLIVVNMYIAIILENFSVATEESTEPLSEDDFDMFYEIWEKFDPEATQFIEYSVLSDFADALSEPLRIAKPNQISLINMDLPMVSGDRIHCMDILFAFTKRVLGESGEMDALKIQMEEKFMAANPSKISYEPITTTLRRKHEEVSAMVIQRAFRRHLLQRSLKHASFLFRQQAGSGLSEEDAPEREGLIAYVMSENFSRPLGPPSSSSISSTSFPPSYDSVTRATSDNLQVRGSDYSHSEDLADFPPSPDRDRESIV
# Assay Summary: PatchXpress 7000 automated patch-clamp, inactivated state block
# Format: cell-based
# Run Parameters: PatchXpress technique
I'd appreciate it if you marked entries 1 when Ratio 1.5:1.7 = Nav 1.5 potency (nM)/Nav1.7 potency (nM) is lower than 30 and -1 when it is not.

q: Please state whether Ratio 1.5:1.7 = Nav 1.5 potency (nM)/Nav1.7 potency (nM) is below 30 for O=S(=O)(Nc1ncns1)c1ccc2c(cnn2Cc2ccc(Cl)cc2C2=CCNCCC2)c1 [Ex-17]
a: 1

q: Please state whether Ratio 1.5:1.7 = Nav 1.5 potency (nM)/Nav1.7 potency (nM) is below 30 for O=S(=O)(Nc1ncns1)c1cc2cnn(Cc3ccccc3)c2cc1F [Ex-12]
a: -1

q: Please state whether Ratio 1.5:1.7 = Nav 1.5 potency (nM)/Nav1.7 potency (nM) is below 30 for C[C@H](c1ccccc1C1CCNCC1)n1ncc2cc(S(=O)(=O)Nc3cccc(F)n3)c(F)cc21 [Ex-43]
a: 1
